These entries and their values trace back to BigSolDB 2.1.

# experimental.parameters: in methanol, 288.15 K
quantity.measured: solubility (mole fraction)
Output: the number by itself.

Asked: Supply reported solubility (mole fraction) belonging to this compound: OC[C@H]1O[C@H](O[C@]2(CCl)O[C@H](CCl)[C@@H](O)[C@@H]2O)[C@H](O)[C@@H](O)[C@H]1Cl
Given back: 0.0315

* * *

# experimental.parameters: in water, 313.15 K
quantity.measured: solubility (mole fraction)
Write the value as a bare number.

Asked: Read off the recorded solubility (mole fraction) for OC[C@H]1O[C@H](O[C@]2(CCl)O[C@H](CCl)[C@@H](O)[C@@H]2O)[C@H](O)[C@@H](O)[C@H]1Cl
Given back: 0.0195

* * *

# experimental.parameters: in water, 303.15 K
quantity.measured: solubility (mole fraction)
Answer as a number with no unit attached.

Asked: Give me measured solubility (mole fraction), please, for this compound: OC[C@H]1O[C@H](O[C@]2(CCl)O[C@H](CCl)[C@@H](O)[C@@H]2O)[C@H](O)[C@@H](O)[C@H]1Cl
Given back: 0.0164

* * *

# experimental.parameters: in ethanol, 308.15 K
quantity.measured: solubility (mole fraction)
Number, no unit, nothing else.

Asked: Answer with the recorded solubility (mole fraction) of OC[C@H]1O[C@H](O[C@]2(CCl)O[C@H](CCl)[C@@H](O)[C@@H]2O)[C@H](O)[C@@H](O)[C@H]1Cl only.
Given back: 0.0184

* * *

# experimental.parameters: in water, 318.15 K
quantity.measured: solubility (mole fraction)
Output: the number by itself.

Asked: Tell me measured solubility (mole fraction) for OC[C@H]1O[C@H](O[C@]2(CCl)O[C@H](CCl)[C@@H](O)[C@@H]2O)[C@H](O)[C@@H](O)[C@H]1Cl please.
Given back: 0.0223

* * *

# experimental.parameters: in ethanol, 333.15 K
quantity.measured: solubility (mole fraction)
The reply should be a number, written without any unit.

Asked: Please look at this compound and report its solubility (mole fraction): OC[C@H]1O[C@H](O[C@]2(CCl)O[C@H](CCl)[C@@H](O)[C@@H]2O)[C@H](O)[C@@H](O)[C@H]1Cl
Given back: 0.0322

* * *

# experimental.parameters: in ethanol, 313.15 K
quantity.measured: solubility (mole fraction)

Asked: Supply solubility (mole fraction) value. Item: OC[C@H]1O[C@H](O[C@]2(CCl)O[C@H](CCl)[C@@H](O)[C@@H]2O)[C@H](O)[C@@H](O)[C@H]1Cl
Given back: 0.0202

* * *

# experimental.parameters: in water, 328.15 K
quantity.measured: solubility (mole fraction)
Give your answer as a number; write no unit.

Asked: // fetch solubility (mole fraction) given entry OC[C@H]1O[C@H](O[C@]2(CCl)O[C@H](CCl)[C@@H](O)[C@@H]2O)[C@H](O)[C@@H](O)[C@H]1Cl
Given back: 0.0285

* * *

# experimental.parameters: in isopropanol, 293.15 K
quantity.measured: solubility (mole fraction)
API note: the answer field is a bare number with no unit suffix.

Asked: State its solubility (mole fraction) for this compound: OC[C@H]1O[C@H](O[C@]2(CCl)O[C@H](CCl)[C@@H](O)[C@@H]2O)[C@H](O)[C@@H](O)[C@H]1Cl
Given back: 0.0044

* * *

# experimental.parameters: in ethanol, 283.15 K
quantity.measured: solubility (mole fraction)
Please reply with the value in numeric form only.

Asked: Provide measured solubility (mole fraction) value, entry: OC[C@H]1O[C@H](O[C@]2(CCl)O[C@H](CCl)[C@@H](O)[C@@H]2O)[C@H](O)[C@@H](O)[C@H]1Cl
Given back: 0.00843

* * *

# experimental.parameters: in ethanol, 288.15 K
quantity.measured: solubility (mole fraction)
Format: numeric value only, no unit, no commentary.

Asked: Return solubility (mole fraction) (reported value) for this molecule: OC[C@H]1O[C@H](O[C@]2(CCl)O[C@H](CCl)[C@@H](O)[C@@H]2O)[C@H](O)[C@@H](O)[C@H]1Cl
Given back: 0.00976

* * *

# experimental.parameters: in water, 333.15 K
quantity.measured: solubility (mole fraction)
When you answer, write just the number.

Asked: Given the compound OC[C@H]1O[C@H](O[C@]2(CCl)O[C@H](CCl)[C@@H](O)[C@@H]2O)[C@H](O)[C@@H](O)[C@H]1Cl , write its reported solubility (mole fraction).
Given back: 0.0314

* * *

# experimental.parameters: in isopropanol, 318.15 K
quantity.measured: solubility (mole fraction)
Field format: numeric only.

Asked: Give reported solubility (mole fraction) value for OC[C@H]1O[C@H](O[C@]2(CCl)O[C@H](CCl)[C@@H](O)[C@@H]2O)[C@H](O)[C@@H](O)[C@H]1Cl
Given back: 0.011

* * *

# experimental.parameters: in methanol, 323.15 K
quantity.measured: solubility (mole fraction)
Could you keep your reply to the number by itself?

Asked: Answer with the recorded solubility (mole fraction) for the molecule listed here: OC[C@H]1O[C@H](O[C@]2(CCl)O[C@H](CCl)[C@@H](O)[C@@H]2O)[C@H](O)[C@@H](O)[C@H]1Cl
Given back: 0.0485

* * *

# experimental.parameters: in ethanol, 328.15 K
quantity.measured: solubility (mole fraction)
Please respond with just the number, no unit label.

Asked: For the molecule OC[C@H]1O[C@H](O[C@]2(CCl)O[C@H](CCl)[C@@H](O)[C@@H]2O)[C@H](O)[C@@H](O)[C@H]1Cl , report solubility (mole fraction).
Given back: 0.0281

* * *

# experimental.parameters: in isopropanol, 333.15 K
quantity.measured: solubility (mole fraction)
Lab note: record just the number, no unit beside it.

Asked: // fetch solubility (mole fraction) given entry OC[C@H]1O[C@H](O[C@]2(CCl)O[C@H](CCl)[C@@H](O)[C@@H]2O)[C@H](O)[C@@H](O)[C@H]1Cl
Given back: 0.0171

* * *

# experimental.parameters: in methanol, 333.15 K
quantity.measured: solubility (mole fraction)

Asked: Look up and report measured solubility (mole fraction) for this entry: OC[C@H]1O[C@H](O[C@]2(CCl)O[C@H](CCl)[C@@H](O)[C@@H]2O)[C@H](O)[C@@H](O)[C@H]1Cl
Given back: 0.0596

* * *

# experimental.parameters: in isopropanol, 303.15 K
quantity.measured: solubility (mole fraction)
Output: the number by itself.

Asked: Read off the recorded solubility (mole fraction) for OC[C@H]1O[C@H](O[C@]2(CCl)O[C@H](CCl)[C@@H](O)[C@@H]2O)[C@H](O)[C@@H](O)[C@H]1Cl
Given back: 0.00624

* * *

# experimental.parameters: in methanol, 298.15 K
quantity.measured: solubility (mole fraction)
Response field accepts a number only; no unit should be typed.

Asked: Supply recorded solubility (mole fraction) for OC[C@H]1O[C@H](O[C@]2(CCl)O[C@H](CCl)[C@@H](O)[C@@H]2O)[C@H](O)[C@@H](O)[C@H]1Cl here.
Given back: 0.0343
